# measured.on: recombinant human HDACs (Homo sapiens)
# experimental.details: HDAC enzymatic assay
# Assay type: biochemical
# conditions.used: 5 nM HDAC enzyme, 5 h pre-incubation, 17 h reaction at 25° C.; isoform not given; read-out: IC50
# Procedure: All recombinant human HDACs were purchased from BPS Bioscience. The substrate, FAM-TSRHK(AC)KL-CONH, was synthesized at NanoSyn. […] Change in the relative fluorescence intensity of the substrate and product peaks reflects enzyme activity. Reaction progress was determined as the product to sum ratio (PSR):P/(S+P), where P is the peak height of the product peptide and S is the peak height of the substrate peptide. […] IC50 values were calculated using a 4 Parameter Logistic Model.
pIC50: −log10 of the molar value.
For each record, write down the corresponding pIC50.

IN: Item Nc1ccc(-c2ccco2)nc1NC(=O)N1Cc2ccncc2C1 has what recorded pIC50?
OUT: 5.30 to 6.30

IN: Item CN1CCN(Cc2cnc3c(c2)CN(C(=O)Nc2nc(-c4ccc(F)cc4)ccc2N)C3)CC1 has what recorded pIC50?
OUT: 6.30 to 7.00

IN: Item Nc1ccc(-c2cccnc2)nc1NC(=O)N1CCC2(CCCNC2)C1 (stereo not shown) has what recorded pIC50?
OUT: < 5.30

IN: Item CN(C)Cc1ccc2c(c1)CN(C(=O)Nc1nc(-c3ccco3)ccc1N)C2 has what recorded pIC50?
OUT: 6.30 to 7.00

IN: Item Nc1ccc(-c2ccccc2)nc1NC(=O)N1CCn2ccnc2C1 has what recorded pIC50?
OUT: < 5.30

IN: Item CN(C)Cc1cc2c(cn1)CN(C(=O)Nc1nc(-c3ccc(F)cc3)ccc1N)C2 has what recorded pIC50?
OUT: 6.30 to 7.00

IN: Item Nc1ccc(-c2ccc(F)cc2)nc1NC(=O)N1CC2CN(CC3CCOCC3)CC2C1 (stereo not shown) has what recorded pIC50?
OUT: < 5.30

IN: Item CN1CCC(COC(=O)Nc2nc(-c3cccnc3)ccc2N)CC1 has what recorded pIC50?
OUT: < 5.30

IN: Item CC(=O)N1CCC(C(=O)Nc2nn(-c3ccccc3)cc2N)CC1 has what recorded pIC50?
OUT: < 5.30

IN: Item Nc1ccc(-c2ccc(F)cc2)nc1NC(=O)N1Cc2cc(CN3CCC(F)(F)C3)cnc2C1 has what recorded pIC50?
OUT: 6.30 to 7.00

IN: Item CN1CCc2sc(C(=O)Nc3nc(-c4ccco4)ccc3N)nc2C1 has what recorded pIC50?
OUT: 6.30 to 7.00

IN: Item Nc1ccc(-c2ccccc2)nc1NC(=O)CN1CCn2cncc2C1 has what recorded pIC50?
OUT: < 5.30

IN: Item COC1CCN(C(=O)Nc2nc(-c3ccc(F)cc3)ccc2N)C1 (stereo not shown) has what recorded pIC50?
OUT: 5.30 to 6.30

IN: Item Cn1ncc2c1CN(C(=O)Nc1nc(-c3ccc(F)cc3)ccc1N)C2 has what recorded pIC50?
OUT: 5.30 to 6.30

IN: Item Nc1ccc(-c2cccs2)nc1NC(=O)N1Cc2nccnc2C1 has what recorded pIC50?
OUT: 6.30 to 7.00

IN: Item CN1CCN(c2ccc3c(c2)CN(C(=O)Nc2nc(-c4ccc(F)cc4)ccc2N)C3)CC1 has what recorded pIC50?
OUT: 6.30 to 7.00

IN: Item CN1CC(n2ncc3c2CN(C(=O)Nc2nc(-c4ccc(F)cc4)ccc2N)C3)C1 has what recorded pIC50?
OUT: < 5.30

IN: Item CN1CCN(c2ccc3c(n2)CN(C(=O)Nc2nc(-c4ccc(F)cc4)ccc2N)C3)CC1 has what recorded pIC50?
OUT: 6.30 to 7.00

IN: Item Nc1ccc(-c2ccc(F)cc2)nc1NC(=O)N1Cc2cncnc2C1 has what recorded pIC50?
OUT: 5.30 to 6.30

IN: Item CN(C)CCN1CC2CN(C(=O)Nc3nc(-c4ccc(F)cc4)ccc3N)CC2C1 (stereo not shown) has what recorded pIC50?
OUT: 5.30 to 6.30

IN: Item Nc1ccc(-c2ccc(F)cc2)nc1NC(=O)c1nc2c(s1)CCN(CCF)C2 has what recorded pIC50?
OUT: 6.30 to 7.00

IN: Item Nc1ccc(-c2ccc(F)cc2)nc1NC(=O)N1CC2CC(N3CC(F)C3)CC2C1 (stereo not shown) has what recorded pIC50?
OUT: 5.30 to 6.30

IN: Item CN1CCC2(CC1)CCN(C(=O)Nc1nc(-c3cccnc3)ccc1N)C2 has what recorded pIC50?
OUT: < 5.30

IN: Item Nc1ccc(-c2cccnc2)nc1NC(=O)C1CCN(Cc2ccccc2F)CC1 has what recorded pIC50?
OUT: < 5.30

IN: Item COC[C@@H]1[C@H]2CN(C(=O)Nc3nc(-c4ccc(F)cc4)ccc3N)C[C@@H]12 has what recorded pIC50?
OUT: 5.30 to 6.30

IN: Item Nc1cn(-c2ccccc2)nc1NC(=O)C1CCN(C2COC2)CC1 has what recorded pIC50?
OUT: < 5.30

IN: Item Nc1ccc(-c2ccc(F)cc2)nc1NC(=O)N1Cc2cnc(N3CCC3)cc2C1 has what recorded pIC50?
OUT: 6.30 to 7.00

IN: Item Nc1ccc(-c2ccc(F)cc2)nc1NC(=O)N1CCN(C(=O)C2C[C@H]2c2ccccc2)CC1 (stereo partly shown) has what recorded pIC50?
OUT: 5.30 to 6.30

IN: Item CN(C)[C@H]1[C@@H]2CN(C(=O)Nc3nc(-c4ccc(F)cc4)ccc3N)C[C@@H]21 has what recorded pIC50?
OUT: < 5.30

IN: Item Nc1cn(-c2ccccc2)nc1NC(=O)N1CC2CCCC2C1 (stereo not shown) has what recorded pIC50?
OUT: < 5.30

IN: Item Nc1ccc(-c2ccc(F)cc2)nc1NC(=O)N1CC2CN(CCF)CC2C1 (stereo not shown) has what recorded pIC50?
OUT: < 5.30

IN: Item CN1CC(N2C[C@@H]3C(C(=O)Nc4nc(-c5ccc(F)cc5)ccc4N)[C@@H]3C2)C1 (stereo partly shown) has what recorded pIC50?
OUT: < 5.30

IN: Item Cc1ccc(C2CN(C(=O)Nc3nc(-c4ccc(F)cc4)ccc3N)C2)cc1 has what recorded pIC50?
OUT: 5.30 to 6.30

IN: Item COc1cccc(CN2CCCC3(CCN(C(=O)Nc4nn(-c5ccc(F)cc5)cc4N)C3)C2)c1 (stereo not shown) has what recorded pIC50?
OUT: < 5.30
